target: human delta-like ligand 3 (DLL3) on SHP77 cells (human) (UniProt Q9NYJ7); experiment: FACS on SHP77 cells
Sequence (Q9NYJ7 27-618, stated change not applied): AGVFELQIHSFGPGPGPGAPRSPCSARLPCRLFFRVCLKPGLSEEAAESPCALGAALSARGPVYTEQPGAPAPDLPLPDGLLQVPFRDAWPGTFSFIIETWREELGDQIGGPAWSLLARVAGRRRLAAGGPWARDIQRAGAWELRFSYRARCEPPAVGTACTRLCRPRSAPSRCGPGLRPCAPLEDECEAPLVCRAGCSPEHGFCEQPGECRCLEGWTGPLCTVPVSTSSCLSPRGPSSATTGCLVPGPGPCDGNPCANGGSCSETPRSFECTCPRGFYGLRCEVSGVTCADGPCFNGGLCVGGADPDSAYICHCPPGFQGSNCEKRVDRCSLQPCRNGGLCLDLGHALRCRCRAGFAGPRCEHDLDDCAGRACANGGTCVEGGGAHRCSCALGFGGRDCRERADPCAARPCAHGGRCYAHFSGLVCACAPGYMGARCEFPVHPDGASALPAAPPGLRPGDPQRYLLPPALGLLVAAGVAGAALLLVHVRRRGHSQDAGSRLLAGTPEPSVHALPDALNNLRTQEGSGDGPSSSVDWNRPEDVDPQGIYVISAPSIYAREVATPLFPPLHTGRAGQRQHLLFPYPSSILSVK
recorded metric: MFI at 4 nM (MFI)

[
  {
    "binder": "Hab014VL3VH1-hFc (scFv, part only; not given: VL-VH linker and human IgG1 Fc, V domains shown, not shown: another chain or arm of the molecule; a dimerising Fc or GST; small tags and cut ends) VL: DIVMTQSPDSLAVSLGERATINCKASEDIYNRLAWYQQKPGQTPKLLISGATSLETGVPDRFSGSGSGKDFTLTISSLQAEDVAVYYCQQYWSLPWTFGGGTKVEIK VH: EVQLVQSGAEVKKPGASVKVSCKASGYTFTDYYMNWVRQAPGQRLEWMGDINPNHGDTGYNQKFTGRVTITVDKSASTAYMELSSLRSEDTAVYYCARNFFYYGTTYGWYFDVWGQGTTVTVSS",
    "recorded metric": "MFI at 4 nM",
    "unit of measurement": "MFI",
    "measured number": 567
  },
  {
    "binder": "Hab014VL1VH2-hFc (scFv, part only; not given: VL-VH linker and human IgG1 Fc, V domains shown, not shown: another chain or arm of the molecule; a dimerising Fc or GST; small tags and cut ends) VL: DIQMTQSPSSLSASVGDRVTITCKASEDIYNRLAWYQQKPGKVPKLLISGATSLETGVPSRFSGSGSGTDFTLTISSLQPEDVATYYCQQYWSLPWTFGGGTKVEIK VH: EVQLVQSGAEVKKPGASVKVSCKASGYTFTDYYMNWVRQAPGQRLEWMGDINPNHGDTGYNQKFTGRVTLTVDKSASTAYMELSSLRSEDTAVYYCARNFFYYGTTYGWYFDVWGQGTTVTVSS",
    "recorded metric": "MFI at 4 nM",
    "unit of measurement": "MFI",
    "measured number": 628
  },
  {
    "binder": "Hab015VL4VH1a-hFc (scFv, part only; not given: scFv linker and human IgG1 Fc, V domains shown, not shown: another chain or arm of the molecule; a dimerising Fc or GST; small tags and cut ends) VL: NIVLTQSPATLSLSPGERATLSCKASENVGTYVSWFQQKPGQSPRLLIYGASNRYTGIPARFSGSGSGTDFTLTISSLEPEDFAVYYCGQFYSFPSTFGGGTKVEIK VH: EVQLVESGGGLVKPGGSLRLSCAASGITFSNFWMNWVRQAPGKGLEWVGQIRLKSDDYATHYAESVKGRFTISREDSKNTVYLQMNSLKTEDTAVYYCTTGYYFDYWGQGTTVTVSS",
    "recorded metric": "MFI at 4 nM",
    "unit of measurement": "MFI",
    "measured number": 762
  }
]
